inhibition values for the compounds below.
measurement_description: H1N1 influenza NS1A inhibitors, functional cell based assay (AID 504329)
details: percent inhibition, at 12.5 µM, active compounds read high
The whole screen tested about 340,000 compounds, of which about 1,000 (0.29%) were called active. A selection follows. Potency and affinity values are given separately.

compound | inhibition [%]
COc1ccccc1C(CNc1ncccc1[N+](=O)[O-])N(C)C (stereo not drawn) | -0.51
C[C@H](C(=O)NCc1ccccc1)C(=O)c1ccccc1 | 8.83
O=c1c(-c2ccccc2)c(O)cc(-c2ccncc2)n1-c1ccc(Cl)cc1 | 1.22

###

inhibition values for the molecules below.
measurement_description: H1N1 influenza NS1A inhibitors, functional cell based assay (AID 504329)
details: percent inhibition, at 12.5 µM, active compounds read high
The campaign covered roughly 340,000 compounds. About 1,000 (0.29%) were called active. The list is a sample of the results. Entries with a potency or affinity are not part of this list.

molecule | inhibition [%]
COc1ccc(C(Nc2cc(C)ccn2)c2ccc3ccc(C)nc3c2O)cc1 (stereo not drawn) | 7.32
C=CCC1(C#N)C(SC)=NC2=C(C(=O)CC(C)(C)C2)C1c1ccc(Br)cc1 (stereo not drawn) | -5.14
CCCn1cc(CN2CCC(n3nccc3NC(=O)CCOc3ccccc3)CC2)c(C)n1 | 3.28
Cc1cc(NC(=O)CSc2nnc(-c3ccccc3)o2)no1 | 14
COc1ccc2c(O)c(-c3c(C)cc(C)cc3C)c(=O)[nH]c2c1 | 10.4
Cc1ccc(S(=O)(=O)Nc2ccc(N=Nc3ccc(O)cc3)cc2)cc1 | 4.71
Oc1c(C(Nc2cccc(C(F)(F)F)c2)c2cccnc2)ccc2cccnc12 (stereo not drawn) | -1.29
Clc1cccc(CN2CCCCCCC2)c1Cl | -8.07
Cc1cccc(-c2nc(C#N)c(N3CCCCC3)o2)c1 | 3.65
Cc1ccc(NC(=O)CSc2nnc(-c3ccco3)o2)cc1 | 5.76
Cc1nc(SCC(=O)Nc2c(C)n(C)n(-c3ccccc3)c2=O)c2cnn(-c3ccccc3)c2n1 | -4.59
Cc1cc(NC(c2ccc(Cl)cc2)c2ccc3cccnc3c2O)no1 (stereo not drawn) | -17.5
O=C1CC(NNc2nc3ccccc3s2)C(=O)N1c1ccccc1 (stereo not drawn) | 2.74
COc1ccccc1NC(=O)c1c(N=Cc2c(O)ccc3ccccc23)cnn1C | 15.2
Cc1ccc(NC(=O)c2cccc(S(=O)(=O)NCc3ccccc3)c2)nc1 | -4.84
c1cncc(CSc2ccc(-c3cccnc3)nn2)c1 | 0.64
c1ccc(CSc2ccc(-c3ccccn3)nn2)cc1 | -2.51
Cc1ccc2ccc(C(Nc3ccccn3)c3ccccc3)c(O)c2n1 (stereo not drawn) | 32.6
Cc1ccnc(NC(c2ccccc2)c2ccc3cccnc3c2O)c1 (stereo not drawn) | 7.45
Fc1ccc(-c2csc(-c3ccccn3)n2)cc1F | -3.95
Cc1ccc(SCC(=O)NCc2ccccc2)cc1 | -3.04
COc1cccc(CNc2ccc(S(=O)(=O)Nc3nccs3)cc2)c1O | -5.98
c1ccc(CSc2ccc(-c3cccnc3)nn2)nc1 | -9.97

###

measurement_description: H1N1 influenza NS1A inhibitors, functional cell based assay (AID 504329)
details: percent inhibition, at 12.5 µM, active compounds read high
Out of some 340,000 compounds screened, about 1,000 (0.29%) were called active. Only a sample is shown. Measured potencies and affinities stand elsewhere.
inhibition values for the molecules below.
measurement_name: inhibition (%)

molecule | measurement_name | endpoint_value
Nc1c(C(=O)NCc2ccc3c(c2)OCO3)nnn1Cc1ccc(Br)cc1 | inhibition | 1.55
CCOC(=O)c1c(NC(=O)c2ccc(N3C(=O)[C@@H]4[C@H](C3=O)[C@H]3C=C[C@@H]4C3)cc2)sc2c1CCCC2 | inhibition | -7.09
O=C(NC1CC1)C1CSC(c2cccnc2)=N1 (configuration not stated) | inhibition | -5.68
Cc1ccc(S(=O)(=O)Nc2ccccc2C(=O)N2CCCCC2)cc1 | inhibition | -16.7
CN(C)Cc1c(C(=O)N/N=C/c2ccncc2)nnn1-c1nonc1N | inhibition | 6.41
COc1ccc(O)c(/C=N/Nc2nc3ccccc3[nH]2)c1 | inhibition | -13.2
c1ccc(N2CCN(Cc3ccnc4ccccc34)CC2)cc1 | inhibition | -0.44
CC(C)c1nnc(NC(=O)C2CCCN(C(=O)Nc3ccc(F)cc3)C2)s1 (configuration not stated) | inhibition | -2.41
O=S(=O)(c1ccc(Cl)cc1)N1CCN(Cc2ccc(O)c3ncccc23)CC1 | inhibition | 19.8
COC(=O)c1ccccc1NC(=O)Nc1cccnc1 | inhibition | -5.77
CNCC(O)c1cc(OCc2ccccc2)c(OCc2ccccc2)cc1F (configuration not stated) | inhibition | 2.8
CCN(c1ccccc1)S(=O)(=O)c1ccc2c(c1)CCCN2C(C)=O | inhibition | 5.4

Data provenance is PubChem BioAssay AID504329.
